Source of measurements: patent US7521451B2

Kindly supply the reported melting point values for the records listed here.
Counter-ions that a name gives are not always drawn.

[Q] May I ask what melting point has been recorded for CCOC(=O)CC1c2cc(C)c(C)cc2C(=S)N1c1cccnc1 (centres unmarked) ?
[A] 158 to 158.5 °C

[Q] Returns the measured melting point for the input compound. Input: Cc1cc2c(cc1C)C(OCC(=O)O)N(c1cccc(F)c1)C2=O (centres unmarked) (as salt: hydrochloride)
[A] 145 to 146 °C

[Q] Param item = Cc1cc2c(cc1C)C(C(=O)O)N(c1cccc(F)c1)C2=O (centres unmarked) (as salt: hydrochloride) ; retrieve measured melting point.
[A] 152 to 157.5 °C

[Q] For CCCOC(=O)CC1c2cc(C)c(C)cc2C(=O)N1c1cccnc1 (centres unmarked) (as salt: hydrochloride) , what is its reported melting point?
[A] 201.5 to 208.5 °C

[Q] Which value of melting point has been reported for Cc1cc2c(cc1C)C(OCC(=O)N1CCN(C)CC1)N(c1cccc(F)c1)C2=O (centres unmarked) (as salt: hydrochloride) in the records?
[A] 138 to 144.5 °C
